- System: A375
- EXPERIMENT SUMMARY: Cancer cell proliferation inhibition, CCK-8, 72 hours
- Type: cell-based
- RECORDED CONDITIONS: Homo sapiens, A-375, 72 h
pIC50: −log10 of the molar value.
MEASURED ENDPOINT: pIC50

• COCCCn1cc(Nc2cccn3c(C#Cc4cc(C(=O)Nc5ccc(CN6CCN(C)CC6)c(C(F)(F)F)c5)ccc4C)cnc23)cn1 [Example 65] = 6.66
• Cc1cn(-c2cc(NC(=O)c3ccc(C)c(C#Cc4cnc5c(Nc6cnn(C)c6)cccn45)c3)cc(C(F)(F)F)c2)cn1 [Example 12] = 6.03
• Cc1ccc(Nc2cccn3c(C#Cc4cc(C(=O)Nc5ccc(CN6CCN(C)CC6)c(C(F)(F)F)c5)ccc4C)cnc23)nc1 [Example 20] = 5.47
• COCCn1cc(Nc2cccn3c(C#Cc4cc(C(=O)Nc5ccc(CN6CCC(N(C)C)C6)c(C(F)(F)F)c5)ccc4C)cnc23)cn1 (stereo not shown) [Example 41] = 6.52
• COCCn1cc(Nc2cccn3c(C#Cc4cc(C(=O)Nc5cc(C(C)(C)C)on5)ccc4C)cnc23)cn1 [Example 59] = 6.39
• CN1CCN(Cc2ccc(NC(=O)c3ccc(F)c(C#Cc4cnc5c(Nc6cnn(C)c6)cccn45)c3)cc2C(F)(F)F)CC1 [Example 61] = 6.76
• CCN1CCN(Cc2ccc(NC(=O)c3ccc(C)c(C#Cc4cnc5c(Nc6cnn(C(C)C)c6)cccn45)c3)cc2C(F)(F)F)CC1 [Example 15] = 6.53
• COCCCn1cc(Nc2cccn3c(C#Cc4cc(C(=O)Nc5ccc(CN6CCC(N(C)C)C6)c(C(F)(F)F)c5)ccc4C)cnc23)cn1 (stereo not shown) [Example 43] = 6.47
• Cc1ccc(C(=O)Nc2ccc(CN3CCN(C)[C@H](C)C3)c(C(F)(F)F)c2)cc1C#Cc1cnc2c(Nc3cnn(CCCN(C)C)c3)cccn12 [Example 34] = 6.04
• COCCn1cc(Nc2cccn3c(C#Cc4cc(C(=O)Nc5ccc(CN6CCN(C)[C@@H](C)C6)c(C(F)(F)F)c5)ccc4C)cnc23)cn1 [Example 44] = 6.74
• Cc1ccc(C(=O)Nc2ccc(CN3CCN(C)CC3)c(C(F)(F)F)c2)cc1C#Cc1cnc2c(Nc3cnn(CCCN(C)C)c3)cccn12 [Example 26] = 6.08

---

Below, each entry is listed alongside its reported IC50.
- Tested on: MDA-MB-231
- EXPERIMENT SUMMARY: Real time cell proliferation, IncuCyte ZOOM, 72 hours
- Assay type: cell-based
- RECORDED CONDITIONS: Homo sapiens, MDA-MB-231, 72 h
MEASURED ENDPOINT: IC50 (nM)

• Cc1ccc(NC(=O)C2(C(=O)Nc3ccc(F)cc3)CC2)cc1C#Cc1cnc2c(Nc3cnn(C(C)C)c3)cccn12 = 8780
• Cc1cn(-c2cc(NC(=O)c3ccc(C)c(C#Cc4cnc5c(Nc6cnn(CCN(C)C)c6)cccn45)c3)cc(C(F)(F)F)c2)cn1 = 474
• CCN1CCN(Cc2ccc(NC(=O)c3ccc(C)c(C#Cc4cnc5c(Nc6ccn(C)n6)cccn45)c3)cc2C(F)(F)F)CC1 = 288

---

- System: M-NFS-60
- EXPERIMENT SUMMARY: Cancer cell proliferation inhibition, CCK-8, 72 hours
- Format: cell-based
pIC50: −log10 of the molar value.
Below, each entry is listed alongside its reported pIC50.
MEASURED ENDPOINT: pIC50

• Cc1ccc(C(=O)Nc2cccc(C(F)(F)F)c2)cc1C#Cc1cnc2c(Nc3cc4n(n3)CCNC4)cccn12 [Example 67] = 7.71
• Cc1ccc(C(=O)Nc2ccc(Cl)c(C(F)(F)F)c2)cc1C#Cc1cnc2c(Nc3cnn(C)c3)cccn12 [Example 62] = 6.99
• Cc1ccc(NC(=O)C2(C(=O)Nc3ccc(F)cc3)CC2)cc1C#Cc1cnc2c(Nc3cnn(C(C)C)c3)cccn12 [Example 78] = 6.17
• Cc1ccc(C(=O)Nc2ccc(CN3CCN(C)CC3)c(C(F)(F)F)c2)cc1C#Cc1cnc2c(Nc3cc4n(n3)CCNC4)cccn12 [Example 66] = 7.20
• Cc1ccc(NC(=O)Nc2cc(C(C)(C)C)on2)cc1C#Cc1cnc2c(Nc3cnn(C(C)C)c3)cccn12 [Example 84] = 5.79
• Cc1ccc(C(=O)Nc2ccc(CN3CCC(N(C)C)C3)c(C(F)(F)F)c2)cc1C#Cc1cnc2c(Nc3cnn(C)c3)cccn12 (stereo not drawn) [Example 32] = 7.19
• Cc1ccc(C(=O)Nc2ccc(CN3CCN(C)CC3)c(C(F)(F)F)c2)cc1C#Cc1cnc2c(Nc3cnn(C(C)C)c3)cccn12 [Example 14] = 6.70
• Cc1ccc(C(=O)Nc2ccc(CN3CCN(C)CC3)c(C(F)(F)F)c2)cc1C#Cc1cnc2c(Nc3ccc(C(F)(F)F)cc3)cccn12 [Example 19] = 6.62
• CCN1CCN(Cc2ccc(NC(=O)c3ccc(C)c(C#Cc4cnc5c(Nc6cnn(C)c6)cccn45)c3)cc2C(F)(F)F)CC1 [Example 8] = 7.47
• Cc1ccc(C(=O)Nc2ccc(CN3CCN(C)CC3)c(C(F)(F)F)c2)cc1C#Cc1cnc2c(Nc3cccc(C(C)(C)O)n3)cccn12 [Example 64] = 6.89
• Cc1ccc(NC(=O)c2ccc(CN3CCN(C)CC3)c(C(F)(F)F)c2)cc1C#Cc1cnc2c(Nc3cnn(C(C)C)c3)cccn12 [Example 77] = 6.74
• Cc1ccc(C(=O)Nc2ccc3cccnc3c2)cc1C#Cc1cnc2c(Nc3cnn(C)c3)cccn12 [Example 36] = 8.11
• Cc1ccc(C(=O)Nc2cccc(C(F)(F)F)c2)cc1C#Cc1cnc2c(Nc3cnn(C)c3)cccn12 [Example 13] = 7.33
• Cc1ccc(C(=O)Nc2ccc(Cl)c(C(F)(F)F)c2)cc1C#Cc1cnc2c(Nc3cnn(C4CCNCC4)c3)cccn12 [Example 63] = 7.15
• COCCn1cc(Nc2cccn3c(C#Cc4cc(C(=O)Nc5cc(C(C)(C)C)on5)ccc4C)cnc23)cn1 [Example 59] = 7.49
• Cc1ccc(C(=O)Nc2cccc(C(F)(F)F)c2)cc1C#Cc1cnc2c(Nc3cnn(C4CCN(C)CC4)c3)cccn12 [Example 72] = 7.65
• Cc1ccc(C(=O)Nc2ccc(CN3CCN(C)CC3)c(C(F)(F)F)c2)cc1C#Cc1cnc2c(Nc3cnn(C)c3)cccn12 [Example 1] = 7.19
• Cc1ccc(C(=O)Nc2ccc(CN3CCN(C)CC3)c(C(F)(F)F)c2)cc1C#Cc1cnc2c(Nc3cnn(CCCN(C)C)c3)cccn12 [Example 26] = 6.92
• COCCn1cc(Nc2cccn3c(C#Cc4cc(C(=O)Nc5cccc(C(F)(F)F)c5)ccc4C)cnc23)cn1 [Example 70] = 7.91
• Cc1ccc(Nc2cccn3c(C#Cc4cc(C(=O)Nc5ccc(CN6CCN(C)CC6)c(C(F)(F)F)c5)ccc4C)cnc23)nc1 [Example 20] = 5.98
• COCCn1cc(Nc2cccn3c(C#Cc4cc(C(=O)Nc5ccc(CN6CCN(C)CC6)c(C(F)(F)F)c5)ccc4C)cnc23)cn1 [Example 57] = 7.70
• Cc1cn(-c2cc(NC(=O)c3ccc(C)c(C#Cc4cnc5c(Nc6cnn(C)c6)cccn45)c3)cc(C(F)(F)F)c2)cn1 [Example 12] = 6.61
• Cc1ccc(C(=O)Nc2cccc(C(F)(F)F)c2)cc1C#Cc1cnc2c(Nc3cnn(CCN(C)C)c3)cccn12 [Example 74] = 7.67
• CCn1cc(Nc2cccn3c(C#Cc4cc(C(=O)Nc5ccc(CN6CCN(C)CC6)c(C(F)(F)F)c5)ccc4C)cnc23)cn1 [Example 22] = 7.25
• CCN1CCN(Cc2ccc(NC(=O)c3ccc(C)c(C#Cc4cnc5c(Nc6cnn(CCCN(C)C)c6)cccn45)c3)cc2C(F)(F)F)CC1 [Example 33] = 7.49
• Cc1cc(Nc2cccn3c(C#Cc4cc(C(=O)Nc5ccc(CN6CCN(C)CC6)c(C(F)(F)F)c5)ccc4C)cnc23)no1 [Example 28] = 7.15
• Cc1ccc(C(=O)Nc2cccc(C(F)(F)F)c2)cc1C#Cc1cnc2c(Nc3cnn(C4CCNCC4)c3)cccn12 [Example 11] = 7.51

---

- MEASURED TARGET: UniProt:P07949
- Sequence (P07949 29-1114): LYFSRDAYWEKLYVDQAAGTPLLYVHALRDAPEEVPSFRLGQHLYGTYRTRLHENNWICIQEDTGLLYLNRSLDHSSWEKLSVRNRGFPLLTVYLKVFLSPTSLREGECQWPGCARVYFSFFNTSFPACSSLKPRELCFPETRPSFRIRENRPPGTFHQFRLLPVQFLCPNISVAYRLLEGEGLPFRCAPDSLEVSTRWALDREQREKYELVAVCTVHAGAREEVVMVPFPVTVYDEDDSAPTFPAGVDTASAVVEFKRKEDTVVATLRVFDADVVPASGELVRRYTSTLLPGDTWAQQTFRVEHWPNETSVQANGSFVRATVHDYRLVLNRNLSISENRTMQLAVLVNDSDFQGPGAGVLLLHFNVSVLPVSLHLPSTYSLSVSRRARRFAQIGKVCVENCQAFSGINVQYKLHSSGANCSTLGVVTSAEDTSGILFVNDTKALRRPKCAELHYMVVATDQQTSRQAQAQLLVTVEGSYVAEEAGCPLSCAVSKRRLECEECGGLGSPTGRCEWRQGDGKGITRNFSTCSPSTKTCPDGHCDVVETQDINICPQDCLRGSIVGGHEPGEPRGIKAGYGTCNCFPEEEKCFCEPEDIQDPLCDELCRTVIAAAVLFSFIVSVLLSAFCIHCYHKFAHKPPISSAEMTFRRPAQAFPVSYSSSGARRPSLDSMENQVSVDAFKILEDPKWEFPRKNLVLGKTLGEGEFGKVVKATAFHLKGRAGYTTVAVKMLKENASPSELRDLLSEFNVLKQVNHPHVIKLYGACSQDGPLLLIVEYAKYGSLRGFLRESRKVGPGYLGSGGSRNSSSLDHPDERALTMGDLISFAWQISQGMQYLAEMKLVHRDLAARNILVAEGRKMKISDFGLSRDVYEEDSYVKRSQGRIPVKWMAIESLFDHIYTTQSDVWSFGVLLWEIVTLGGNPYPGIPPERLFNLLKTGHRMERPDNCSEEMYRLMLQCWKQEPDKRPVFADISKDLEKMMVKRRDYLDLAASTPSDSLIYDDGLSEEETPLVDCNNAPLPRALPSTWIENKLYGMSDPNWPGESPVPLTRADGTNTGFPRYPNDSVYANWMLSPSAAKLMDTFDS
pKd: −log10 of the molar value.
Below, each entry is listed alongside its reported pKd.
MEASURED ENDPOINT: pKd

- Cc1ccc(C(=O)Nc2ccc(CN3CCC(N(C)C)C3)c(C(F)(F)F)c2)cc1C#Cc1cnc2c(Nc3cnn(C(C)C)c3)cccn12 (stereo not shown) [Example 30]: 8.03
- Cc1cn(-c2cc(NC(=O)c3ccc(C)c(C#Cc4cnc5c(Nc6cnn(C)c6)cccn45)c3)cc(C(F)(F)F)c2)cn1 [Example 12]: 7.60
- Cc1ccc(NC(=O)Nc2ccc(CN3CCN(C)CC3)c(C(F)(F)F)c2)cc1C#Cc1cnc2c(Nc3cnn(C(C)C)c3)cccn12 [Example 82]: 7.85
- Cc1ccc(C(=O)Nc2ccc(CN3CCN(C)CC3)c(C(F)(F)F)c2)cc1C#Cc1cnc2c(Nc3cnn(C)c3)cccn12 [Example 1]: 8.00
